molecular target: hERG K+ channel (Homo sapiens, UniProt Q12809); experiment: In vitro blocking of hERG K+ channels (QPatch automated patch-clamp, CHO-K1 cells); format: cell-based; details: pH 7.4, at 10 μM, CHOhERG cells, 4 minutes of stimulation, average block on two cells
Sequence (Q12809 whole entry): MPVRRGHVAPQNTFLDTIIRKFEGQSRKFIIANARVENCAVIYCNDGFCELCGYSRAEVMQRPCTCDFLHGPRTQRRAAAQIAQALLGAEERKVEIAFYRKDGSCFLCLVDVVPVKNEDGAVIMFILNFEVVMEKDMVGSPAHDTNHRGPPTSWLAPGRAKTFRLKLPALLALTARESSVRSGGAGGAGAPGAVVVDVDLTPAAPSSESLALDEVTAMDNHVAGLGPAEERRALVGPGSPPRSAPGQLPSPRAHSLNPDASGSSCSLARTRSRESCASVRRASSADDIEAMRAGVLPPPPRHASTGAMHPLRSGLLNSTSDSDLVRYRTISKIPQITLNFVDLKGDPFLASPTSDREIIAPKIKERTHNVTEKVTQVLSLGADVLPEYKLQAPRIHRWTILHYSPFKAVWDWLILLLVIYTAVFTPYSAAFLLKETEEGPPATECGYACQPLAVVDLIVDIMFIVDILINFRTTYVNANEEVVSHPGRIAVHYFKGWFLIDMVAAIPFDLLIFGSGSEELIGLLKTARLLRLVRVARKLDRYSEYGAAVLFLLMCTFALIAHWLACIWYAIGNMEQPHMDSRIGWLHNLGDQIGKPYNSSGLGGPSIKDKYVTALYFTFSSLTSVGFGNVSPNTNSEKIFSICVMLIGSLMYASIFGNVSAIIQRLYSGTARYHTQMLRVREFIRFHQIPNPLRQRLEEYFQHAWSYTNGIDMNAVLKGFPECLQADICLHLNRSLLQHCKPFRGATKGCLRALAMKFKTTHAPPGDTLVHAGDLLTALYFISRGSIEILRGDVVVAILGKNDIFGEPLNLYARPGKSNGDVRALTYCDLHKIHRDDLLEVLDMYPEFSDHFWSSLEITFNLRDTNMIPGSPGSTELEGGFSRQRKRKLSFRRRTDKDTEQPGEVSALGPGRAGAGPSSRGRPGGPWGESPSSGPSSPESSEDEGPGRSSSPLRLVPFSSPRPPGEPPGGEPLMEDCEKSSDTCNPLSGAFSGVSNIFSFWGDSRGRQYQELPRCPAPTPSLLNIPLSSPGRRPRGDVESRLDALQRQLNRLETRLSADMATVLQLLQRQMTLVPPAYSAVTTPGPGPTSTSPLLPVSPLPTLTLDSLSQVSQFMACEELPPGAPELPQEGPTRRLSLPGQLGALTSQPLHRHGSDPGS
MEASURED ENDPOINT: inhibition at 4 min, 10 µM (%)
Field format: number, assumed %, no unit text.

Take a look at these entries with their results.
COc1ccc2ncc(F)c(C[C@H](O)[C@@H]3CC[C@@H](NCc4cc5c(nn4)OCCO5)CO3)c2n1 = 5
COc1ccc2ncc(F)c(CCC3CCC(NCc4cc5c(cn4)OCCO5)CO3)c2n1 (stereo not shown) [Reference Example No. 1, reference compound] = 77
COc1ccc2ncc(F)c(C[C@H](O)[C@@H]3CC[C@@H](NCc4cc5c(cn4)OCCO5)CO3)c2n1 = 29

API: value(readout=inhibition at 4 min, 10 µM, system=hERG K+ channel (Homo sapiens, UniProt Q12809)) for record COc1ccc2nccc(C[C@H](O)[C@@H]3CC[C@@H](NCc4cc5c(cn4)OCCO5)CO3)c2n1
26
